Target or system RNA polymerase II Serine 5 phosphorylation (CDK7) in A549 cells: recorded IC50 listed per item.
Measure: IC50 (nM)

Summary line: C=CC(=O)N1CC(N2CCC(c3cc(C)c4c(c3)Nc3ncnc(N5CCC(CCO)C5)c3CO4)CC2)C1 (stereo not drawn) [compound 113] , RNA polymerase II Serine 5 phosphorylation (CDK7) in A549 cells, reported IC50 = 9120

Summary line: C=CC(=O)N1CC(N2CCC(c3cc4c(c(C5CC5)c3)OCc3c(ncnc3N3CCOCC3)N4)CC2)C1 [compound 47] , RNA polymerase II Serine 5 phosphorylation (CDK7) in A549 cells, reported IC50 = 245

P = C=CC(=O)N1CC(N2CCC(c3ccc4c(c3)Nc3ncnc(N5CCOCC5)c3[C@H](CC)O4)CC2)C1 (single isomer, unassigned) [compound 75]
Q = C=CC(=O)N1CCN(C2CCN(c3cc(C)c4c(c3)Nc3ncnc(N5CCS(=O)(=O)CC5)c3CO4)CC2)CC1 [compound 91]
Q: Of P and Q , which shows the smaller IC50 value? Please indicate the selected item by its label.
Ans: Q
